assay-target: T1, P6SH
T1 chain: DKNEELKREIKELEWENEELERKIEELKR
experimental-protocol: two-hybrid library CCNG1;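 further: natural log of median RNA to DNA barcode read ratio; higher means stronger binding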
property-name: interaction score

DKNEELKREIKELEWENEELERKIEELKR [P6SH] ... 0.574

[P] DENEKLEEKIWELKRKNEELKREIKELEE [P5SH]
[Q] DEIKELEEEIKELEWKNEELKRKNEELKR [P3SH]
[R] DKIEELKRKIEELKWENEELERENEELER [P4SH]
Qu. Arrange items by their interaction score values in increasing order. Rank the items, then write their labels in that order.
Ans. R, Q, P
